The values you see were collected from the supplement of paper PMC10567573.

B1: COX4I1 (parent)
chain: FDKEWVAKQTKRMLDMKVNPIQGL

- Variants of: B1
- PROTOCOL: protein stability index of a GFP-peptide fusion (GPS, HEK-293T) (PSI 1-6); higher = more stable;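 note: lentivirally expressed fusions sorted by FACS into six bins by GFP to DsRed ratio, PSI derived from sequencing read proportions per bin multiplied by bin number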
- CONDITIONS_USED: c terminus: a fixed tail appended
REPORTED_PROPERTY: protein stability index

>>> assay_result("FDKEWVAKQTKRMLDMAVNPIQGL [K17A]")
1.96
>>> assay_result("FDKEWVAKRTKRMLDMKVNPIQGL [Q9R]")
1.87
>>> assay_result("FDKEWVAKQTKRMLDMKVNPIGGL [Q22G]")
1.63
>>> assay_result("FDKEWVAKQTKTMLDMKVNPIQGL [R12T]")
1.54
>>> assay_result("FDKEWVAKQTKRMLDMKVNPKQGL [I21K]")
2.06
